Measured values drawn from BindingDB's records for doi:10.1021/jm970682+ for this set.

- protocolText: The compound was tested for the affinity on sigma 1 receptor using [3H]- pentazocine as radioligand
pKi: −log10 of the molar value.
measuredEndpoint: pKi

Example entries begin here.
| compoundSmiles | pKi |
| --- | --- |
| O=C(c1ccccc1)c1ccc2c(c1)sc(=O)n2CCN1CCCC1 | 7.27 |
| O=c1oc2cc(Cc3ccccc3)ccc2n1CCN1CCOCC1 | 7.14 |
| CCC(=O)c1ccc2c(c1)sc(=O)n2CCN1CCCCC1 | 7.33 |
| CCCCC(=O)c1ccc2c(c1)sc(=O)n2CCN(C)C | 6.20 |
| CCCc1ccc2c(c1)sc(=O)n2CCN1CCCCC1 | 9.22 |

[P] CCC(=O)c1ccc2c(c1)oc(=O)n2CCN1CCCCC1
[Q] CN(C)CCn1c(=O)oc2cc(C(=O)c3ccccc3)ccc21
Of P and Q , which carries the smaller reported pKi figure? Write down the label attached to your selection.
Q
(Q: 6.44, P: 7.14)

----------
- protocolText: The compound was tested for the affinity on sigma 1 receptor using [3H]- pentazocine as radioligand
measuredEndpoint: Ki (nM)
Express it in nM; write the number only.

CCC(=O)c1ccc2c(c1)sc(=O)n2C(=O)CC [3,6-Dipropionyl-3H-benzothiazol-2-one] yielded Ki of 63
